Reference for the values: patent US11319324B2

- tested_on: UniProt P56373
- Sequence (P56373 whole entry): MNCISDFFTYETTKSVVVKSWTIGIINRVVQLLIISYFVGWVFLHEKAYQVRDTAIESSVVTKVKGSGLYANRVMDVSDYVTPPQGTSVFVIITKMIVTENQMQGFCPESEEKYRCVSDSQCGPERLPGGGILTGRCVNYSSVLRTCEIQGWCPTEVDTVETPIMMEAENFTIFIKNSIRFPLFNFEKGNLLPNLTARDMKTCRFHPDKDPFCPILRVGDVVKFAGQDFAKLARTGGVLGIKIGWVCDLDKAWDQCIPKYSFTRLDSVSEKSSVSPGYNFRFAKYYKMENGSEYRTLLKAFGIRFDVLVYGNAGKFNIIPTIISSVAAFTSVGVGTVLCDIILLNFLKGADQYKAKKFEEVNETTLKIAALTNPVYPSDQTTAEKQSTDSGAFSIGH
- method_description: Intracellular calcium measurement to assess antagonist activity at human P2X3 receptors (hP2X3 FLIPR)
- Format: cell-based
- Set-up: expressed in transfected cells; host or cells: human astrocytoma 1321N1 (1312N1 [sic])
- particulars: head prints (1321N1); read-out: 1) hP2X3 IC50 [nM] (1321N1)
value_kind: IC50 (nM)

INSERT INTO assay_data (compound, tested_on, numeric_readout) VALUES
  ('CC[C@H](C)N1Cc2c(n(CC(=O)Nc3ccc(Cl)cn3)c3cc(C(F)(F)F)nn3c2=O)C1=O [Example 22]', 'UniProt P56373', 56);

a = CC(C)N1Cc2c(n(CC(=O)Nc3ccc(Cl)cn3)c3cc(C(F)(F)F)nn3c2=O)C1=O [Example 29]
b = COCC(C)N1Cc2c(n(CC(=O)Nc3ccc(F)cn3)c3cc(Br)nn3c2=O)C1=O (stereo not drawn) [Example 36]
Rank a against b by their IC50 values and give the higher one. Label of pick, please.
a
